targetDesc: beta-catenin/TCF4 engagement (Homo sapiens, UniProt P35222)
Construct: expressed in transfected cells; host or cells: HEK293
Sequence (P35222 whole entry): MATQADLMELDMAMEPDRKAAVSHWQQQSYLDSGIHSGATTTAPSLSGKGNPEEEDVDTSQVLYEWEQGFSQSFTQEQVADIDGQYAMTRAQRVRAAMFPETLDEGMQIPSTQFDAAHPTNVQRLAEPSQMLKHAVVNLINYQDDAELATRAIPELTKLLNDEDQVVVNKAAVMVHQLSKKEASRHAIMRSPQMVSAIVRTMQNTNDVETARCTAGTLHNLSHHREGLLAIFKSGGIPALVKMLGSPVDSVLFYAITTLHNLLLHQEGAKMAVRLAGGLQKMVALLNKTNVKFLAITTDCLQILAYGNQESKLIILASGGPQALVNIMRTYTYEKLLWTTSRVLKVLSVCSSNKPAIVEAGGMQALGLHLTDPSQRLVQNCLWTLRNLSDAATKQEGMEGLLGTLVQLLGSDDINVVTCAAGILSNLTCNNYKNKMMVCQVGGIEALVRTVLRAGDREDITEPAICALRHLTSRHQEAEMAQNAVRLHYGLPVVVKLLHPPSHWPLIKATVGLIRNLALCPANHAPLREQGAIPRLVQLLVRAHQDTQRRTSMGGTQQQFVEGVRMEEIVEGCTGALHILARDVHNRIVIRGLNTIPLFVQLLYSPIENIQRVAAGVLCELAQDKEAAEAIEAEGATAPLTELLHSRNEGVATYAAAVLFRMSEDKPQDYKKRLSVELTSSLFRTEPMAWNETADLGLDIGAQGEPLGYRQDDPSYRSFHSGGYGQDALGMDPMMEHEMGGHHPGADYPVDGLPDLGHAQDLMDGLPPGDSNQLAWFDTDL
assayProtocol: Nano-BRET target engagement assay (B-cat-Halo & TCF4-Luc in HEK293 cells)
Format: cell-based
assayConditions: read-out: NanoBRET IC50
Quick reference for pIC50 among some compounds
Just so you know, pIC50 here is -log10 of the concentration in molar units; reply with that number alone.

CC(=O)N1CCC[C@]12CC=CCCCC1(CCCC=CCCCOC(=O)N3CC[C@@](C(=O)N[C@@H](Cc4ccsc4)C(=O)N[C@@H](Cc4csc5ccccc45)C(=O)N[C@@H](CCC(N)=O)C(N)=O)(C3)NC(=O)[C@H](CC(C)C)NC(=O)[C@H](Cc3ccccc3)NC(=O)[C@H](C)NC(=O)[C@H](C)NC(=O)[C@H](CN(CC(=O)O)CC(F)(F)F)NC(=O)[C@H](CC(=O)O)NC1=O)NC(=O)[C@H](CC(C)(C)C)NC(=O)[C@H](CC(=O)O)NC2=O (stereo partly drawn) | 5.64
CC(=O)N1CCC[C@]12CC=CCCCC1(CCCC=CCCCOC(=O)N3CC[C@@](C(=O)N[C@@H](Cc4ccccc4Cl)C(=O)N[C@@H](Cc4csc5ccccc45)C(=O)N[C@@H](CCC(N)=O)C(N)=O)(C3)NC(=O)[C@H](CC(N)=O)NC(=O)[C@H](Cc3ccccc3)NC(=O)[C@H](C)NC(=O)[C@H](C)NC(=O)[C@H](CN(CC(=O)O)CC(F)(F)F)NC(=O)[C@H](CC(=O)O)NC1=O)NC(=O)[C@H](CC(C)(C)C)NC(=O)[C@H](CC(=O)O)NC2=O (stereo partly drawn) | 5.40

Next:
So what's the measured pIC50 for this one? CC(=O)N1CCC[C@]12CC=CCCCC1(CCCC=CCCCOC(=O)N3CC[C@@](C(=O)N[C@@H](Cc4ccsc4)C(=O)N[C@@H](Cc4csc5ccccc45)C(=O)N[C@@H](CCC(N)=O)C(=O)NCCCCCCN)(C3)NC(=O)[C@H](CC(N)=O)NC(=O)[C@H](Cc3ccccc3)NC(=O)[C@H](C)NC(=O)[C@H](C)NC(=O)[C@H](CC(=O)O)NC(=O)[C@H](CC(=O)O)NC1=O)NC(=O)[C@H](CC(C)(C)C)NC(=O)[C@H](CC(=O)O)NC2=O (stereo partly drawn) 4.65
